target: Neu5Ac(a2-3)Gal(b1-3)[Fuc(a1-4)]GlcNAc(b1-3)Gal(b1-4)[Fuc(a1-3)]GlcNAc; test: glycan array binding signal (z-score within array); higher = stronger binding; details: glycan notation: IUPAC condensed, linker removed
The sample as a whole holds a higher share of the strongest signals than the screen did.
glycan array binding signal (z-score) reference
test_readout: glycan array binding signal (z-score)

INSERT INTO assay_data (binder, test_readout, value_observed) VALUES
  ('MCL (Mus musculus), Q9Z2H6 (protein) MWLEESQMKSKGTRHPQLIPCVFAVVSISFLSACFISTCLVTHHYFLRWTRGSVVKLSDYHTRVTCIREEPQPGATGGTWTCCPVSWRAFQSNCYFPLNDNQTWHESERNCSGMSSHLVTINTEAEQNFVTQLLDKRFSYFLGLADENVEGQWQWVDKTPFNPHTVFWEKGESNDFMEEDCVVLVHVHEKWVWNDFPCHFEVRRICKLPGITFNWKPSK', 'glycan array binding signal (z-score)', -0.245),
  ('AMA (Arum maculatun) (protein) MAKLLLLLLLPAIVGLAVPRSAAAVGSNYMLSGETLNTDGRLTNGELTLIMQVDCNLVLYHGGWQSNTANNGRDCKLTLTDFGELVIKSGTGSTVWSSGSKQSMKGNYAAVVHPEGRLVIYGPSVFKINPSGAGLNGLPLRNIPLTNNMLFSGQVLYGDGTLSARNHKLVMQGDCNMVLYGGKYGWQSNTHGNGKYCFAMLTHKGELVIRDDDFKSVWSSKSSSKQGDYVFILQDDSLAIIYGPAVFSTGSKKMISMVTN', 'glycan array binding signal (z-score)', -0.226),
  ('LecRKVI.2 (protein) RTTTNFAFRGFNGNQSKIRIEGAAMIKPDGLLRLTDRKSNVTGTAFYHKPVRLLNRNSTNVTIRSFSTSFVFVIIPSSSSNKGFGFTFTLSPTPYRLNAGSAQYLGVFNKENNGDPRNHVFAVEFDTVQGSRDDNTDRIGNDIGLNYNSRTSDLQEPVVYYNNDDHNKKEDFQLESGNPIQALLEYDGATQMLNVTVYPARLGFKPTKPLISQHVPKLLEIVQEEMYVGFTASTGKGQSSAHYVMGWSFSSGGERPIADVLILSELPPPPPNKAKKEGLNS', 'glycan array binding signal (z-score)', -0.388);
